The values you see were collected from the array DNA melting data of Ke et al. (doi:10.1101/2024.01.08.574731).

Here the recorded Tm is given for each entry.
Test: melting temperature; fluorescence melt of hairpins on a sequencing array, two-state fit, raised by 9.35 °C to match UV melts
Conditions: sodium 0.088 M
Write the answer as a number in °C, unit excluded.

Check out these entries, answers already filled in.
INSERT INTO assay_data (sequence_string, reading) VALUES
  ('GCCCTTCGAAAGAACGGC (((.(((....))).)))', 42.2),
  ('GATCAGAAGGCTGATC ((((((....))))))', 45.8);

Req: Consider the sequence shown here: GCGGTAGGAAACTACCAC (.(((((....))))).) What is its recorded Tm?
Resp: 44.1

* * *

Assay: folding enthalpy; higher = less favourable; fluorescence melt of hairpins on a sequencing array, two-state fit
Settings: sodium 0.088 M
Please enter fulfilled where folding enthalpy is greater than or equal to -20 kcal/mol, and not fulfilled where it is lower.

INSERT INTO measurements (sequence_string, label_value) VALUES
  ('GAAGGCGGAAACGCCTCC (.(((((....))))).)', 'fulfilled'),
  ('GTGTCCGAAAGGAGTCAC ((((((....)))..)))', 'fulfilled'),
  ('GTAGAAGGAAACCTCTAC (((((.(....).)))))', 'fulfilled'),
  ('GTCCTCCGAAAGGACGAC (((.(((....))).)))', 'not fulfilled'),
  ('GTTGGCGGAAACGCTAAC (((.(((....))).)))', 'not fulfilled');

Req: Exam item: decide whether the reported folding enthalpy for GGATACGGAAACGTGTTC (.(.(((....))).).) is at least -20 kcal/mol.
Resp: fulfilled

Req: Exam item: decide whether the reported folding enthalpy for GGATTGTCGAAAGACTCC (((..(((....)))))) is at least -20 kcal/mol.
Resp: fulfilled

Req: Exam item: decide whether the reported folding enthalpy for GGCGGATCGAAAGATGCC (((..(((....)))))) is at least -20 kcal/mol.
Resp: not fulfilled

* * *

Here the recorded folding enthalpy is given for each entry.
Experiment: folding enthalpy; higher = less favourable; fluorescence melt of hairpins on a sequencing array, two-state fit
Conditions: sodium 0.088 M
Write the answer as a number in kcal/mol, unit excluded.

INSERT INTO results (sequence_string, reading) VALUES
  ('GATATGCGAAAGCAGATC (((.(((....))).)))', -30.3),
  ('GAAGTCGGAAACGATTTC (((.(((....))).)))', -30.6);

Req: Consider the sequence shown here: CGAAGCGGAAACGCGTCG (((.(((....))).))) What is its recorded folding enthalpy?
Resp: -29.1

Req: Consider the sequence shown here: GATCGGTGCCCCGATC ((((((....)))))) What is its recorded folding enthalpy?
Resp: -29.1

* * *

Test: melting temperature; fluorescence melt of hairpins on a sequencing array, two-state fit, raised by 9.35 °C to match UV melts
Settings: sodium 0.088 M
So basically: is Tm under 50 °C? Then yes. Not under? Then no.

Below are worked cases with known answers.
INSERT INTO results (sequence_string, label_value) VALUES
  ('GCTACGGAAACGTAGC ((((((....))))))', 'no'),
  ('CGACCCCGGAAACGGTCG (((..(((....))))))', 'yes'),
  ('TTGTGGAAACACAA (((((....)))))', 'yes');

Req: Please state whether Tm is below 50 °C for GTAGGCGAAAGCCGTAC ((((((....))).)))
Resp: no

Req: Please state whether Tm is below 50 °C for GATCGGAAGTCCGATC ((((((....))))))
Resp: no

Req: Please state whether Tm is below 50 °C for GTGCTTGGAAACAAGCAC (((((((....)))))))
Resp: no

* * *

Here the recorded folding enthalpy is given for each entry.
Experiment: folding enthalpy; higher = less favourable; fluorescence melt of hairpins on a sequencing array, two-state fit
Details: sodium 0.088 M
Write the answer as a number in kcal/mol, unit excluded.

Check out these entries, answers already filled in.
INSERT INTO measurements (sequence_string, quantity_measured, unit_of_measure, reading) VALUES
  ('GATCAGCGAAAGCTCATC (((.(((....))).)))', 'folding enthalpy', 'kcal/mol', -13),
  ('GCGTTGCGAAAGCACAGC ((..(((....)))..))', 'folding enthalpy', 'kcal/mol', -20.9),
  ('GATCCGACTACGGATC ((((((....))))))', 'folding enthalpy', 'kcal/mol', -35.6),
  ('GCAACAGGAAACCGTTGC (((((.(....).)))))', 'folding enthalpy', 'kcal/mol', -43.8),
  ('GTTTTTGGAAACGAAAAC (((((.(....).)))))', 'folding enthalpy', 'kcal/mol', -31.3);

Req: Consider the sequence shown here: GCAAGGCGAAAGCCGTGC (((.(((....))).))) What is its recorded folding enthalpy?
Resp: -22.8

* * *

Experiment: melting temperature; fluorescence melt of hairpins on a sequencing array, two-state fit, raised by 9.35 °C to match UV melts
Details: sodium 0.088 M
quantity.measured: Tm (°C)
Write the answer as a number in °C, unit excluded.

INSERT INTO results (sequence_string, reading) VALUES
  ('TCCTGGAAACAGGA (((((....)))))', 45.5),
  ('GCTCTTACGAAAGTAAGC (((..(((....))))))', 34.7),
  ('GCGTCCCACGC ((((...))))', 56.3),
  ('GAGATCGAAAGATCTC ((((((....))))))', 63.2),
  ('GATCATGAACATGATC ((((((....))))))', 54);

Req: Consider the sequence shown here: GCCGACGCGAAAGCGGGC (((..(((....)))))) What is its recorded Tm?
Resp: 65.9

Req: Consider the sequence shown here: GCTCAACCGAAAGGTAGC (((..(((....)))))) What is its recorded Tm?
Resp: 39.4

Req: Consider the sequence shown here: GTTCCCGAAAGGGCAAC ((((((....))).))) What is its recorded Tm?
Resp: 40.4

* * *

Experiment: melting temperature; fluorescence melt of hairpins on a sequencing array, two-state fit, raised by 9.35 °C to match UV melts
Details: sodium 0.088 M
quantity.measured: Tm (°C)
Write the answer as a number in °C, unit excluded.

Check out these entries, answers already filled in.
INSERT INTO assay_data (sequence_string, reading) VALUES
  ('GCCAGCGAAAGCTCAGGC ((((((....)))..)))', 49.9),
  ('GGGGGAGGAAACTCCTCC ((.((((....)))).))', 53.4),
  ('GCGGAATCGAAAGATCGC (((..(((....))))))', 45.5),
  ('CGCATGAAAATGCG (((((....)))))', 67.6),
  ('GAAAATCCGAAAGGATTC (((..(((....))))))', 33.4);

Req: Consider the sequence shown here: GATGTCGGAAACAACATC (((((.(....).))))) What is its recorded Tm?
Resp: 35.7

Req: Consider the sequence shown here: GGAGTCGAAAGACGTTCC ((((((....)))..))) What is its recorded Tm?
Resp: 37.6

* * *

Assay: folding enthalpy; higher = less favourable; fluorescence melt of hairpins on a sequencing array, two-state fit
Details: sodium 0.088 M
Here the recorded folding enthalpy is given for each entry.
Write the answer as a number in kcal/mol, unit excluded.

INSERT INTO measurements (sequence_string, quantity_measured, reading) VALUES
  ('GATCGTGTGTACGATC ((((((....))))))', 'folding enthalpy', -40.9),
  ('GCAGACCGAAAGGTTTGC (((.(((....))).)))', 'folding enthalpy', -41.6);

Req: Consider the sequence shown here: GGTACGGGAAACCGTGCC ((.((((....)))).)) What is its recorded folding enthalpy?
Resp: -40.9

Req: Consider the sequence shown here: GCATCTACGAAAGTATGC (((..(((....)))))) What is its recorded folding enthalpy?
Resp: -20.7

* * *

Experiment: folding enthalpy; higher = less favourable; fluorescence melt of hairpins on a sequencing array, two-state fit
Settings: sodium 0.088 M
quantity.measured: folding enthalpy (kcal/mol)
Write the answer as a number in kcal/mol, unit excluded.

Check out these entries, answers already filled in.
INSERT INTO assay_data (sequence_string, unit_of_measure, reading) VALUES
  ('GGAGACGGAAACGTCCCC ((.((((....)))).))', 'kcal/mol', -20.1),
  ('CGCACGGAAACGTAGCG ((((((....))).)))', 'kcal/mol', -30.4),
  ('GAGATCGGAAACGACCTC (((.(((....))).)))', 'kcal/mol', -29.8),
  ('GGGTATCGAAAGATCCC (((.(((....))))))', 'kcal/mol', -30.6);

Shift focus to the following entry.
Req: Consider the sequence shown here: GCGGGAGCCCGC ((((....)))) What is its recorded folding enthalpy?
Resp: -20
